Assay: AUClast in Sprague-Dawley rat model of bleomycin-induced pulmonary fibrosis at 2 mg/kg, iv by LC-MS/MS analysis
Type: ADME, organism-based
Parameters: time 0 - last, dose 2 mg/kg, route iv
Conditions: in vivo
VALUE_KIND: AUC(0-t) (ng·h/mL)
Expressed in ng·h/mL, but write only the number.

The recorded AUC(0-t) for entry Cc1ccc(=O)n(-c2ccccc2)c1 [PIRFENIDONE] equals 649

The recorded AUC(0-t) for entry Cc1cc(=O)n(-c2ccc(N3CCC(Cc4ccc(Cl)c(F)c4)CC3)c(Cl)c2)c(C)n1 equals 4280

The recorded AUC(0-t) for entry Cc1cc(=O)n(-c2ccc(N3CCC(COc4cccc(F)c4)CC3)c(Cl)c2)c(C)n1 equals 1450

The recorded AUC(0-t) for entry Cc1cc(=O)n(-c2ccc(N3CCC(Cc4cccc(C(F)(F)F)c4)CC3)c(Cl)c2)c(C)n1 equals 2460

The recorded AUC(0-t) for entry Cc1cc(=O)n(-c2ccc(N3CCC(Cc4cc(F)c(F)c(F)c4)CC3)c(Cl)c2)c(C)n1 equals 2190

New cases:
The recorded AUC(0-t) for entry Cc1cc(=O)n(-c2ccc(N3CCC(Cc4cccc(Cl)c4)CC3)c(Cl)c2)c(C)n1 equals 898

The recorded AUC(0-t) for entry Cc1cc(=O)n(-c2ccc(N3CCC(Cc4cccc5ccccc45)CC3)c(F)c2)c(C)n1 equals 1110

* * *

Assay: Half life in mouse liver microsomes by LC-MS/MS analysis
Format: ADME, Microsome
VALUE_KIND: half-life (h)
Expressed in h, but write only the number.

The recorded half-life for entry Cc1cc(=O)n(-c2ccc(N3CCC(Cc4ccc(Cl)c(F)c4)CC3)c(Cl)c2)c(C)n1 equals 1.18

* * *

Assay: Toxicity in po dosed Sprague-Dawley rat administered once daily for 28 days
Assay type: organism-based
Conditions: in vivo, time 28 day
VALUE_KIND: MTD at 672 h

The recorded MTD at 672 h for entry Cc1cc(=O)n(-c2ccc(N3CCC(Cc4ccc(Cl)c(F)c4)CC3)c(Cl)c2)c(C)n1 equals > 500 mg/kg

* * *

Assay: Intrinsic clearance in dog liver microsomes by LC-MS/MS analysis
Type: ADME, Canis lupus familiaris, Microsome
Conditions: read-out: CLH
VALUE_KIND: CLint scaled (mL/min/kg)
Expressed in mL/min/kg, but write only the number.

The recorded CLint scaled for entry Cc1cc(=O)n(-c2ccc(N3CCC(Cc4ccc(Cl)c(F)c4)CC3)c(Cl)c2)c(C)n1 equals 11.7

* * *

Test: Volume of distribution at steady state in dog at 1 mg/kg, iv by LC-MS/MS analysis
Type: ADME, organism-based, Canis lupus familiaris
Conditions: in vivo, read-out: Vdss
VALUE_KIND: Vd (L/kg)
Expressed in L/kg, but write only the number.

The recorded Vd for entry Cc1cc(=O)n(-c2ccc(N3CCC(Cc4ccc(Cl)c(F)c4)CC3)c(Cl)c2)c(C)n1 equals 1.8

* * *

Assay: Half life in Sprague-Dawley rat model of bleomycin-induced pulmonary fibrosis at 5 mg/kg, po by LC-MS/MS analysis
Format: ADME, organism-based
Details: in vivo
Binary call on half-life with cut-off 8 h: strictly below means True, and equality or higher means False.

Solved cases below.
**Query** Does the reported half-life of the following compound sit strictly below 8 h? Cc1cc(=O)n(-c2ccc(N3CCOCC3)c(F)c2)c(C)n1
**Result** True

**Query** Does the reported half-life of the following compound sit strictly below 8 h? Cc1cc(=O)n(-c2ccc(N3CCC(Cc4cccc(C(F)(F)F)c4)CC3)c(Cl)c2)c(C)n1
**Result** False

**Query** Does the reported half-life of the following compound sit strictly below 8 h? Cc1cc(=O)n(-c2ccc(N3CCC(Cc4cccc5ccccc45)CC3)c(F)c2)c(C)n1
**Result** True

**Query** Does the reported half-life of the following compound sit strictly below 8 h? Cc1cc(=O)n(-c2ccc(N3CCC(Cc4cc(F)c(F)c(F)c4)CC3)c(Cl)c2)c(C)n1
**Result** False

**Query** Does the reported half-life of the following compound sit strictly below 8 h? Cc1cc(=O)n(-c2ccc(N3CCC(COc4cccc(F)c4)CC3)c(Cl)c2)c(C)n1
**Result** True

Proceed to the following item.
**Query** Does the reported half-life of the following compound sit strictly below 8 h? Cc1cc(=O)n(-c2ccc(N3CCC(Cc4cccc(Cl)c4)CC3)c(Cl)c2)c(C)n1
**Result** False

* * *

Assay: AUC(infinity) in Sprague-Dawley rat model of bleomycin-induced pulmonary fibrosis at 2 mg/kg, iv by LC-MS/MS analysis
Format: ADME, organism-based
Parameters: time infinity, dose 2 mg/kg, route iv
Settings: in vivo
Decision: AUC(0-inf) compared against 2000 ng·h/mL; not below it gives condition met, below it gives condition not met.

Solved cases below.
**Query** Could you tell me if the measured AUC(0-inf) of Cc1cc(=O)n(-c2ccc(N3CCC(Cc4cccc5ccccc45)CC3)c(F)c2)c(C)n1 reaches 2000 ng·h/mL or more?
**Result** condition not met

**Query** Could you tell me if the measured AUC(0-inf) of Cc1cc(=O)n(-c2ccc(N3CCC(Cc4ccc(Cl)c(F)c4)CC3)c(Cl)c2)c(C)n1 reaches 2000 ng·h/mL or more?
**Result** condition met

**Query** Could you tell me if the measured AUC(0-inf) of Cc1cc(=O)n(-c2ccc(N3CCC(Cc4cccc(Cl)c4)CC3)c(Cl)c2)c(C)n1 reaches 2000 ng·h/mL or more?
**Result** condition not met

**Query** Could you tell me if the measured AUC(0-inf) of Cc1cc(=O)n(-c2ccc(N3CCC(COc4cccc(F)c4)CC3)c(Cl)c2)c(C)n1 reaches 2000 ng·h/mL or more?
**Result** condition met

**Query** Could you tell me if the measured AUC(0-inf) of Cc1cc(=O)n(-c2ccc(N3CCC(Cc4cccc(C(F)(F)F)c4)CC3)c(Cl)c2)c(C)n1 reaches 2000 ng·h/mL or more?
**Result** condition met

**Query** Could you tell me if the measured AUC(0-inf) of Cc1cc(=O)n(-c2ccc(N3CCC(Cc4cc(F)c(F)c(F)c4)CC3)c(Cl)c2)c(C)n1 reaches 2000 ng·h/mL or more?
**Result** condition met

Proceed to the following item.
**Query** Could you tell me if the measured AUC(0-inf) of Cc1ccc(=O)n(-c2ccccc2)c1 reaches 2000 ng·h/mL or more?
**Result** condition not met

* * *

Assay: Half life in human liver microsomes by LC-MS/MS analysis
Assay type: ADME, Microsome
VALUE_KIND: half-life (h)
Expressed in h, but write only the number.

The recorded half-life for entry Cc1cc(=O)n(-c2ccc(N3CCC(Cc4ccc(Cl)c(F)c4)CC3)c(Cl)c2)c(C)n1 equals 1.73

* * *

Test: AUClast in Sprague-Dawley rat model of bleomycin-induced pulmonary fibrosis at 5 mg/kg, po by LC-MS/MS analysis
Assay type: ADME, organism-based
Parameters: time 0 - last, dose 5 mg/kg, route po
Conditions: in vivo
Decision: AUC(0-t) compared against 2000 ng·h/mL; not below it gives T, below it gives F.

Solved cases below.
**Query** Could you tell me if the measured AUC(0-t) of Cc1cc(=O)n(-c2ccc(N3CCC(Cc4ccc(Cl)c(F)c4)CC3)c(Cl)c2)c(C)n1 reaches 2000 ng·h/mL or more?
**Result** T

**Query** Could you tell me if the measured AUC(0-t) of Cc1cc(=O)n(-c2ccc(N3CCC(Cc4cccc5ccccc45)CC3)c(F)c2)c(C)n1 reaches 2000 ng·h/mL or more?
**Result** F

**Query** Could you tell me if the measured AUC(0-t) of Cc1cc(=O)n(-c2ccc(N3CCC(Cc4cc(F)c(F)c(F)c4)CC3)c(Cl)c2)c(C)n1 reaches 2000 ng·h/mL or more?
**Result** T

**Query** Could you tell me if the measured AUC(0-t) of Cc1cc(=O)n(-c2ccc(N3CCC(COc4cccc(F)c4)CC3)c(Cl)c2)c(C)n1 reaches 2000 ng·h/mL or more?
**Result** F

**Query** Could you tell me if the measured AUC(0-t) of Cc1cc(=O)n(-c2ccc(N3CCC(Cc4cccc(Cl)c4)CC3)c(Cl)c2)c(C)n1 reaches 2000 ng·h/mL or more?
**Result** F

New cases:
**Query** Could you tell me if the measured AUC(0-t) of Cc1cc(=O)n(-c2ccc(N3CCC(Cc4cccc(C(F)(F)F)c4)CC3)c(Cl)c2)c(C)n1 reaches 2000 ng·h/mL or more?
**Result** T

**Query** Could you tell me if the measured AUC(0-t) of Cc1cc(=O)n(-c2ccc(N3CCOCC3)c(F)c2)c(C)n1 reaches 2000 ng·h/mL or more?
**Result** T

* * *

Assay: Clearance in dog at 1 mg/kg, iv by LC-MS/MS analysis
Type: ADME, organism-based, Canis lupus familiaris
Conditions: in vivo
VALUE_KIND: clearance (mL/min/kg)
Expressed in mL/min/kg, but write only the number.

The recorded clearance for entry Cc1cc(=O)n(-c2ccc(N3CCC(Cc4ccc(Cl)c(F)c4)CC3)c(Cl)c2)c(C)n1 equals 1.67
